Target: FLNA (Homo sapiens)
Construct: validate the use of that 5-mer peptide as a surrogate for the complete molecule in the assays carried out herein; host or cells: A7 cells
Sequence (P21333 whole entry): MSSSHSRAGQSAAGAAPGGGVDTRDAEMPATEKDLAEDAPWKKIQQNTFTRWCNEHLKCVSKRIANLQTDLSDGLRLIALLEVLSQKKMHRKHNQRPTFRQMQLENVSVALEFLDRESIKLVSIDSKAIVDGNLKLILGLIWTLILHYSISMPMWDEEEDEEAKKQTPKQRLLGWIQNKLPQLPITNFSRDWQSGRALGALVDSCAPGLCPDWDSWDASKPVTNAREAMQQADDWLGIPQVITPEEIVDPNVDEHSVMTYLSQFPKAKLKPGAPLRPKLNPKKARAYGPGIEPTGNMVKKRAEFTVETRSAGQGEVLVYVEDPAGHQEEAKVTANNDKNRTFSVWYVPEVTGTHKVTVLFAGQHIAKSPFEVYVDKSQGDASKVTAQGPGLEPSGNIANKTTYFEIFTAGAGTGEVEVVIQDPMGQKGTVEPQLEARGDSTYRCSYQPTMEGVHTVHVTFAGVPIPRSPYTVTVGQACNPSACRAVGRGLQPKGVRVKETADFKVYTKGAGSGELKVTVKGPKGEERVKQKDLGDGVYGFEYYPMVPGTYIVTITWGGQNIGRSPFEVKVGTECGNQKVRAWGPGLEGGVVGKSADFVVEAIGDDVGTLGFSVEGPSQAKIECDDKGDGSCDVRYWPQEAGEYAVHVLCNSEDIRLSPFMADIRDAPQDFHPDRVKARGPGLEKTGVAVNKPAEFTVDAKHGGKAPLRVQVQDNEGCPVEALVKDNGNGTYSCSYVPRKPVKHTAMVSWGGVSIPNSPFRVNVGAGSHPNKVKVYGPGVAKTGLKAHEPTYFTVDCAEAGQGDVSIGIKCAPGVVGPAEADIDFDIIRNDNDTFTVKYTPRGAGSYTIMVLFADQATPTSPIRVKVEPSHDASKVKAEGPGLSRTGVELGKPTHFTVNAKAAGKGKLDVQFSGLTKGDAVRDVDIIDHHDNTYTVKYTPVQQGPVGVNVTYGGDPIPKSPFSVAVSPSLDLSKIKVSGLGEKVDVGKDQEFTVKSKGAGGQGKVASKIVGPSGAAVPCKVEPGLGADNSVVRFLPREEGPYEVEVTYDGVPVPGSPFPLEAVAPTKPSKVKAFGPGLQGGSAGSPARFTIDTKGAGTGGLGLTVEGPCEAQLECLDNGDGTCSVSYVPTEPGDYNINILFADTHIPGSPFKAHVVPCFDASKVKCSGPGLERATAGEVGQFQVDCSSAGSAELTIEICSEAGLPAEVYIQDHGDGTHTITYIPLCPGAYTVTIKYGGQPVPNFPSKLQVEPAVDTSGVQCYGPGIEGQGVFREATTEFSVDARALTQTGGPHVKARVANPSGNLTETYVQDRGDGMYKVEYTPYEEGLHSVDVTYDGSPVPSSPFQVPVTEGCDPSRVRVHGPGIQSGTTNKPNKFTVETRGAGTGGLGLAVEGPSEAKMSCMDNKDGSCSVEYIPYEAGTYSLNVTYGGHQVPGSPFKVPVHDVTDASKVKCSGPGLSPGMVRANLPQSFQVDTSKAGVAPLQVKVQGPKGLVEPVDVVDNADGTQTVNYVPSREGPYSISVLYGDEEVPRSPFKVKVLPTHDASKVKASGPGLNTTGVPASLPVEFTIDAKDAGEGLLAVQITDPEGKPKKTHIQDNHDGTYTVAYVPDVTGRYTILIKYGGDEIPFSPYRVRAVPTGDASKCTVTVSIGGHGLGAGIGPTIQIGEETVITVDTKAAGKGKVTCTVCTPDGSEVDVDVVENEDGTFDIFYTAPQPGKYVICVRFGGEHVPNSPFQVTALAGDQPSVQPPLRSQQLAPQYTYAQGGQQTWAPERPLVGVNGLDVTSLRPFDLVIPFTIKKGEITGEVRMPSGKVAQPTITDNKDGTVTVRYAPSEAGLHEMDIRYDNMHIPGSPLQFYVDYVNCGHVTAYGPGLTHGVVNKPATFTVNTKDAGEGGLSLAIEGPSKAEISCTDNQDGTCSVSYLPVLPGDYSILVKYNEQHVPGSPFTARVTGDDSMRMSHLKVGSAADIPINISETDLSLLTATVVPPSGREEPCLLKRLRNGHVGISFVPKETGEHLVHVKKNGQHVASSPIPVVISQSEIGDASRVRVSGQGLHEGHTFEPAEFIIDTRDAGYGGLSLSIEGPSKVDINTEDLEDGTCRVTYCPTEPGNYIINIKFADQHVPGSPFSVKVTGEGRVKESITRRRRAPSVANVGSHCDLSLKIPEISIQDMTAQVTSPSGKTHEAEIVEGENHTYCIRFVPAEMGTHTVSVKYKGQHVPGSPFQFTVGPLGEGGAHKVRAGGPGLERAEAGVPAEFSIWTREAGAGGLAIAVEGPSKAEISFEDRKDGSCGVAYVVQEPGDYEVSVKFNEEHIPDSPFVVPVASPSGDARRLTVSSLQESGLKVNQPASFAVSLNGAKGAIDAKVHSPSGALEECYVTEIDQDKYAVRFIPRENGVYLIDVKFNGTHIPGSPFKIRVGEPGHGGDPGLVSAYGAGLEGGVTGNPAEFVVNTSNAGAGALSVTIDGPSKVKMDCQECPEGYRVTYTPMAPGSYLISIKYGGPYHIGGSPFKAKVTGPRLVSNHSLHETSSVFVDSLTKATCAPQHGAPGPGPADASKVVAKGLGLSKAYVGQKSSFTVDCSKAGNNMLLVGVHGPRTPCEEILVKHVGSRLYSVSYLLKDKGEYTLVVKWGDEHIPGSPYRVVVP
Experiment: [3H]NLX competition binding to FLNA in SK-N-MC cell membranes
Conditions: read-out: IC50-L, inhibition of [3H]NLX binding
value_type: IC50
Include the unit right after the number.

**Q:** Which measured IC50 value corresponds to CN1CCC2(CC1)NCC(=O)N2Cc1ccccc1 [Compound C0105] ?
**A:** 0.111 nM

====

Can you tell me % DAMGO (0.1 μM) for the items I'm about to list?
Biological target: mu opiate receptor (MOR) (Rattus norvegicus)
Construct: from tissue; host or cells: striatum (membrane preparation)
Sequence (P33535 whole entry): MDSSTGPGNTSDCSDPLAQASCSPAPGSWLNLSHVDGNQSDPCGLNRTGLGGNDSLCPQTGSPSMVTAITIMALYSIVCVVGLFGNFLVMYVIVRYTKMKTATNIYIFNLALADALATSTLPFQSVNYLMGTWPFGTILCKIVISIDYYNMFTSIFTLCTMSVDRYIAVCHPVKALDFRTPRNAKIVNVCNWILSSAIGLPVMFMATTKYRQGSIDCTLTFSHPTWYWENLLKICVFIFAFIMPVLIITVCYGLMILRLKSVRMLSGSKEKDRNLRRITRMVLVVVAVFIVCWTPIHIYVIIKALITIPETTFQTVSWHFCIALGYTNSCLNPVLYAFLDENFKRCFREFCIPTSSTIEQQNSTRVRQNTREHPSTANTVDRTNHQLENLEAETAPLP
Type: biochemical
Numbers only; they are read as %.

**Q:** Which % DAMGO (0.1 μM) reading was recorded for the compound CC(=O)c1ccc(S(=O)(=O)N2CC(CN(C)C)OC23CCN(C)CC3)cc1 (stereo not drawn) [Compound C0108M] ?
**A:** 108.7

**Q:** Also, COc1cc(F)ccc1C(=O)CC1c2c(cc3c(c2OC)OCO3)CC[N+]1(C)C (stereo not drawn) [Compound B0007] please.
**A:** 95.3

**Q:** Then what about the compound COc1cc(C(=O)CC2c3c(cc4c(c3OC)OCO4)CC[N+]2(C)C)cc(OC)c1OC (stereo not drawn) [Compound B0037] ?
**A:** 76.5

**Q:** Moving on to COc1ccccc1CC(O)CC1c2c(cc3c(c2OC)OCO3)CCN1C (stereo not drawn) [Compound B0030]
**A:** 62.6

**Q:** What do you get for CC1CCCC(OCC(O)CN2CC(C)OC(C)C2)C1 (stereo not drawn) [Compound A0021] ?
**A:** 79.8

**Q:** One more compound: CC1CCC(C(C)C)C(OCC(O)CN2CC(C)OC(C)C2)C1 (stereo not drawn) [Compound A0032-1]
**A:** 95.5

**Q:** Moving on to O=C1CNC2(CCNCC2)N1Cc1ccccc1 [Compound C0114M]
**A:** 77.6

**Q:** // query: CC1CCC(C(C)C)C(OCC(O)CN2CC(C)CC(C)C2)C1 (stereo not drawn) [Compound A0008]
**A:** 109.6

**Q:** Entry CCCCc1ccc(S(=O)(=O)N2CCC3(CC2)OCCN3S(=O)(=O)c2ccc(CCCC)cc2)cc1 [Compound C0030] please
**A:** 96.0

// provenance: patent US10760052B2
